experiment: Pharmacokinetics: concentration of prodrug (or propofol) in rat plasma after intravenous infusion, LC/MS/MS; settings: male, Sprague-Dawley, rat, plasma, iv, 0.168 mmol/Kg
Hi there, I'd appreciate the recorded Vd for every entry that follows.
Give bare numbers, in L/kg.

Recorded results for 3 molecules are shown here.
[[record]]
molecule = "CC(C)c1cccc(C(C)C)c1O [Propofol, 2,6-diisopropylphenol, reference compound]"
assay_metric = "Vd"
quantitative_readout = 61.2

[[record]]
molecule = "CC(C)c1cccc(C(C)C)c1OC(=O)OCCCO[C@@H]1O[C@H](CO)C(O[C@H]2O[C@H](CO)[C@@H](O)[C@H](O)[C@H]2O)[C@H](O)[C@H]1O (stereo partly shown) [Compound 25]"
assay_metric = "Vd"
quantitative_readout = 1.51

[[record]]
molecule = "CC(C)c1cccc(C(C)C)c1OC(=O)OCCO[C@@H]1O[C@H](CO)C(O[C@H]2O[C@H](CO)[C@@H](O)[C@H](O)[C@H]2O)[C@H](O)[C@H]1O (stereo partly shown) [Compound 24]"
assay_metric = "Vd"
quantitative_readout = 120


Attention now turns to another entry.
Prompt: Fill in Vd for record CC(C)c1cccc(C(C)C)c1OC(=O)NCCO[C@@H]1O[C@H](CO)[C@@H](O)[C@H](O)[C@H]1O [Compound 17]
Completion: 0.657

###

For each entry below, report its clearance value.
experiment: Pharmacokinetics: concentration of prodrug (or propofol) in rat plasma after intravenous infusion, LC/MS/MS; details: male, Sprague-Dawley, rat, plasma, iv, 0.168 mmol/Kg
Numbers only, in mL/min/kg.

[[record]]
compound = "CC(C)c1cccc(C(C)C)c1OC(=O)OCCCO[C@@H]1O[C@H](CO)C(O[C@H]2O[C@H](CO)[C@@H](O)[C@H](O)[C@H]2O)[C@H](O)[C@H]1O (stereo partly shown)"
assay_metric = "clearance"
quantitative_readout = 337

[[record]]
compound = "CC(C)c1cccc(C(C)C)c1OC(=O)OCCO[C@@H]1O[C@H](CO)C(O[C@H]2O[C@H](CO)[C@@H](O)[C@H](O)[C@H]2O)[C@H](O)[C@H]1O (stereo partly shown)"
assay_metric = "clearance"
quantitative_readout = 5800

[[record]]
compound = "CC(C)c1cccc(C(C)C)c1OC(=O)NCCO[C@@H]1O[C@H](CO)[C@@H](O)[C@H](O)[C@H]1O"
assay_metric = "clearance"
quantitative_readout = 39.1


Could you now consider this next compound?
Prompt: Fill in reported clearance for this entry: CC(C)c1cccc(C(C)C)c1O [Propofol, 2,6-diisopropylphenol, reference compound]
Completion: 265

###

I'd be grateful if you could share measured Cmax for these entries.
assay: Pharmacokinetics: concentration of prodrug (or propofol) in rat plasma after intravenous infusion, LC/MS/MS; details: male, Sprague-Dawley, rat, plasma, iv, 0.168 mmol/Kg
Answers are plain numbers, in µM.

[[record]]
compound = "CC(C)c1cccc(C(C)C)c1OC(=O)NCCO[C@@H]1O[C@H](CO)[C@@H](O)[C@H](O)[C@H]1O"
assay_metric = "Cmax"
quantitative_readout = 313


Report Cmax for each item below.
1. CC(C)c1cccc(C(C)C)c1OC(=O)OCCO[C@@H]1O[C@H](CO)C(O[C@H]2O[C@H](CO)[C@@H](O)[C@H](O)[C@H]2O)[C@H](O)[C@H]1O (stereo partly drawn)
2. CC(C)c1cccc(C(C)C)c1OC(=O)OCCCO[C@H]1O[C@H](CO)[C@@H](O)[C@H](O)[C@H]1O

Completion:
[8.1, 0.0231]
